Listed compounds paired with reported log10(EC50)
Biological target: FXR ligand binding domain (Homo sapiens, UniProt Q96RI1)
Sequence (Q96RI1 187-472 isoform Q96RI1-2): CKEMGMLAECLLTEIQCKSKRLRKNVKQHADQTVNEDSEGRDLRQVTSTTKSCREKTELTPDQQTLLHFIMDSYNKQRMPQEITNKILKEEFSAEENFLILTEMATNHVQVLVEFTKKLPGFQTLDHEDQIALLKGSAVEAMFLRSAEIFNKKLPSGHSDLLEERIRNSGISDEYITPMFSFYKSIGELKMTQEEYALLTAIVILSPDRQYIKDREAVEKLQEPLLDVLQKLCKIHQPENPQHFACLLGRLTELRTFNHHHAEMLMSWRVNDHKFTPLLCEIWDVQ
Test: Mammalian One Hybrid (M1H) assay, Gal4 promoter driven transactivation in HEK293 cells
Conditions: Gal4-FXR-LBD luciferase reporter, 16 h
Note the log scale: values are log10 of EC50 expressed in µM.

compound	test-target	log10(EC50)
O=C(NCCN1CCOCC1)c1cc(F)c2nc([C@]3(O)CC[C@@H](OCc4c(-c5c(Cl)cncc5Cl)noc4C4CC4)CC3)sc2c1 [Example 17]	FXR ligand binding domain (Homo sapiens, UniProt Q96RI1)	-0.17
O=C(O)c1cnc2cc([C@]3(O)CC[C@@H](OCc4c(-c5c(Cl)cccc5Cl)noc4C4CC4)CC3)ccc2c1 [Example 11-43]	FXR ligand binding domain (Homo sapiens, UniProt Q96RI1)	0.26
O=C(O)c1ccc2sc([C@]3(O)CC[C@@H](OCc4c(-c5c(Cl)cccc5Cl)noc4C4CC4)CC3)nc2c1 [Example 4]	FXR ligand binding domain (Homo sapiens, UniProt Q96RI1)	-1.00
N#Cc1ccc2nc([C@]3(O)[C@@H]4CC[C@H]3C[C@H](OCc3c(-c5c(Cl)cccc5Cl)noc3C3CC3)C4)sc2c1 [Example 8-5]	FXR ligand binding domain (Homo sapiens, UniProt Q96RI1)	-1.24
O[C@@]1(c2cnc3nn[nH]c3c2)[C@@H]2CC[C@H]1C[C@H](OCc1c(-c3c(Cl)cccc3Cl)noc1C1CC1)C2 [Example 34]	FXR ligand binding domain (Homo sapiens, UniProt Q96RI1)	-2.28
O=C(O)c1cc(F)c2nc([C@]3(O)[C@@H]4CC[C@H]3CC(OCc3c(-c5c(Cl)cccc5Cl)noc3C3CC3)(C(F)F)C4)sc2c1 (single isomer, unassigned) [Example 11-40]	FXR ligand binding domain (Homo sapiens, UniProt Q96RI1)	-0.54

Q: What value of log10(EC50) has been recorded for this entry: O=C(O)Cc1ccc(F)c([C@]2(O)CC[C@@H](OCc3c(-c4c(Cl)cccc4Cl)noc3C3CC3)CC2)c1 [Example 11-9]
Result: -0.92

Q: // next record O=C(O)c1cc(F)c2nc([C@]3(O)C[C@@H](OCc4c(-c5c(Cl)cccc5Cl)noc4C4CC4)C3)sc2c1 [Example 11-21]
Result: -0.51

Q: // next record O=C(O)c1cc(F)c2nc([C@]3(O)CC4CC3CC4OCc3c(-c4c(Cl)cccc4Cl)noc3C3CC3)sc2c1 (single isomer, unassigned) [Example 11-48]
Result: -0.72
